# assayed_system: UniProt:Q86TI2
# assay_overview: DPP9 enzyme inhibition, IC50 measurement (Ala-Pro-pNA release)
# Format: biochemical
# measurement_conditions: Table 3; selectivity index, DPP8 IC50 over DPP9 IC50
Listing: SI DPP9/8 of selected molecules
Reply with the value as a number alone.

- molecule: "N#Cc1ccc(CCC(=O)NC23CC4CC(CC(NCC(=O)N5Cc6ccccc6C5)(C4)C2)C3)cc1 [Compound 44]"
  SI DPP9/8: 19.9

Continue with the next molecule.
Look up and report measured SI DPP9/8 for this entry: O=C(CCCCC1SCC2NC(=O)NC21)NCCOCCOCCOCCNC(=O)NC12CC3CC(CC(NCC(=O)N4Cc5ccc(F)cc5C4)(C3)C1)C2 (stereo not drawn) [Compound 75]
12

====

Attribute: pIC50
# assayed_system: DPP4 (Homo sapiens (Human), UniProt P27487)
# Sequence (P27487 whole entry): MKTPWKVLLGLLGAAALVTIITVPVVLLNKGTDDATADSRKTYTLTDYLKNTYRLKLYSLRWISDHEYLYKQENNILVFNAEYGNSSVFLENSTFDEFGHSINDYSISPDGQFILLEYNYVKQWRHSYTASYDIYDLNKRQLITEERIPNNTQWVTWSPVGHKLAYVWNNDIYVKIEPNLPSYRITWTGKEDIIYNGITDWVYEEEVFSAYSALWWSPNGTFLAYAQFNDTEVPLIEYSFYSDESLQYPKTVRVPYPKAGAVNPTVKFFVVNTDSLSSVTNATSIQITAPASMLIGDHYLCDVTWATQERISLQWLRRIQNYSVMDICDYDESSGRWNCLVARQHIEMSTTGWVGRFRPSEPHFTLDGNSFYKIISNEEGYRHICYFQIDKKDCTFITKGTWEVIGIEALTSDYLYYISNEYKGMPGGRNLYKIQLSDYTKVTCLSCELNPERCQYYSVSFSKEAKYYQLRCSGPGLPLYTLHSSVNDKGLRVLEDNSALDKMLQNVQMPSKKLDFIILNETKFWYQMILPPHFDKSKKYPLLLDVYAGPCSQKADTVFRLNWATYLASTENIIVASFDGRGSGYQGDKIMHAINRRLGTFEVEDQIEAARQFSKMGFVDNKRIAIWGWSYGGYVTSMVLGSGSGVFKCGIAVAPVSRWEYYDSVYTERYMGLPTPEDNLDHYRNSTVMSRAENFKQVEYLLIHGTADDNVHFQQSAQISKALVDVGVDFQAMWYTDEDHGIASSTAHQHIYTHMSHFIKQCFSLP
# assay_overview: DPP4 enzyme inhibition, IC50 measurement (Ala-Pro-pNA release)
# Type: biochemical
# measurement_conditions: Table 1; mean ± SD (n = 3)
Schema: pIC50 number; meaning minus log10 of the concentration expressed in molar units.

- molecule: "N#C[C@@H]1C[C@H](N=[N+]=[N-])CN1C(=O)CNC12CC3CC(CC(O)(C3)C1)C2 [Compound 5d]"
  assayed_system: "DPP4 (Homo sapiens (Human), UniProt P27487)"
  pIC50: 7.49
- molecule: "C=C1C[C@@H](C#N)N(C(=O)CNC23CC4CC(C2)CC(OCc2ccccc2)(C4)C3)C1 [Compound 5i]"
  assayed_system: "DPP4 (Homo sapiens (Human), UniProt P27487)"
  pIC50: 6.55
- molecule: "C=C1C[C@@H](C#N)N(C(=O)CNC23CC4CC(CC(O)(C4)C2)C3)C1 [Compound 5h]"
  assayed_system: "DPP4 (Homo sapiens (Human), UniProt P27487)"
  pIC50: 6.64

Report pIC50 from DPP4 (Homo sapiens (Human), UniProt P27487) testing of N#C[C@@H]1[C@@H]2C[C@@H]2CN1C(=O)CNC12CC3CC(C1)CC(OCc1ccccc1)(C3)C2 [Compound 5m]
7.00

====

# assayed_system: PREP (Homo sapiens (Human))
# Sequence (P48147 whole entry): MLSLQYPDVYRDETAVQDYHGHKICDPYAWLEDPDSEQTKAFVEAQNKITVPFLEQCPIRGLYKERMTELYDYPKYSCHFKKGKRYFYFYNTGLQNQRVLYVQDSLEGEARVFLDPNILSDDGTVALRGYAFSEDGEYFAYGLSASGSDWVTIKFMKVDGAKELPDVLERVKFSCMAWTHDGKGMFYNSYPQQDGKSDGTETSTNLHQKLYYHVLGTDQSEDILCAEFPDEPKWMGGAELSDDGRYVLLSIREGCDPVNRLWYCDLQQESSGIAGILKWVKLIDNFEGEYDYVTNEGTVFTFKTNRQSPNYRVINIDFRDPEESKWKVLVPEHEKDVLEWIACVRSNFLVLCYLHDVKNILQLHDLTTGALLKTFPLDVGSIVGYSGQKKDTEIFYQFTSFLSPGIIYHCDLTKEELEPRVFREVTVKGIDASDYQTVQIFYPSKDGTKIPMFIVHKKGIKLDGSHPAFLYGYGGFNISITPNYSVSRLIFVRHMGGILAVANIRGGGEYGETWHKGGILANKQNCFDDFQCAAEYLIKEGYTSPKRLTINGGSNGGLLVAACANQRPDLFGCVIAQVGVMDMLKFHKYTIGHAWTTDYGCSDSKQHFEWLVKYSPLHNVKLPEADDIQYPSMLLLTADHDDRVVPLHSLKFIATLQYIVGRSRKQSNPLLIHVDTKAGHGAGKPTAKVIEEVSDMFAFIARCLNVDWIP
# assay_overview: PREP enzyme inhibition, IC50 measurement (N-succinyl-Gly-Pro-AMC release)
# Assay type: biochemical
# measurement_conditions: Table 1; mean ± SD (n = 3)
Consider the following molecules and their measured pIC50 readings.
Here pIC50 is given on a logarithmic scale as minus log10 of the concentration in mol/L.

- molecule_smiles: "N#C[C@@H]1CCCN1C(=O)CNC12CC3CC(C1)CC(OCc1ccccc1)(C3)C2"
  pIC50: 5.37
- molecule_smiles: "C=C1C[C@@H](C#N)N(C(=O)CNC23CC4CC(C2)CC(OCc2ccccc2)(C4)C3)C1"
  pIC50: 5.05

State, in one line, measured pIC50 of `N#C[C@@H]1CCCN1C(=O)CNC12CC3CC(C1)CC(OCc1ccc(F)cc1F)(C3)C2`
5.66

====

# assayed_system: DPP9 (Homo sapiens (Human), UniProt Q86TI2)
# Sequence (Q86TI2 whole entry): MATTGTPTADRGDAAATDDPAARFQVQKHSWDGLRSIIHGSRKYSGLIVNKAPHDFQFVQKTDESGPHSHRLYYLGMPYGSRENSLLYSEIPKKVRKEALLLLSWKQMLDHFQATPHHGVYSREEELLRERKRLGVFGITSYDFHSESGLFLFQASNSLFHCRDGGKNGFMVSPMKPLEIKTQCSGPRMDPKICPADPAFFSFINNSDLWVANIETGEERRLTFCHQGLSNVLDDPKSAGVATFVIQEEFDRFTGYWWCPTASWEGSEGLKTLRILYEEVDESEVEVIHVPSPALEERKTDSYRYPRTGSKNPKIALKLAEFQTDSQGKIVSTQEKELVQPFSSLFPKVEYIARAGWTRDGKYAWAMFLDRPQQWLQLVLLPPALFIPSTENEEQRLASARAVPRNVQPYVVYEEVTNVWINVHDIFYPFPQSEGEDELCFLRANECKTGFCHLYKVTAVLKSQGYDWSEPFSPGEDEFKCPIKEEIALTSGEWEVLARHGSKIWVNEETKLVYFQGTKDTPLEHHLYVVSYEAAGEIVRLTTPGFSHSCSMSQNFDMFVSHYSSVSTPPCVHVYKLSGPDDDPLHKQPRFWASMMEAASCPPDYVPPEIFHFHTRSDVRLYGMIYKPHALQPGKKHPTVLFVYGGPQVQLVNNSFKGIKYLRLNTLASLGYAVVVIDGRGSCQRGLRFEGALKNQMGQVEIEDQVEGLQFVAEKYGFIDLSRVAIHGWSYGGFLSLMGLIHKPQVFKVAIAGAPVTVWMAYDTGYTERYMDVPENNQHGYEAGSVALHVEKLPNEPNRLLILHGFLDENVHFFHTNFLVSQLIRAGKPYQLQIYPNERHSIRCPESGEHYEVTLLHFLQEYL
# assay_overview: DPP9 enzyme inhibition, IC50 measurement (Ala-Pro-pNA release)
# Format: biochemical
# measurement_conditions: Table 3; selectivity index, DPP8 IC50 over DPP9 IC50
We begin with a simple list: items and their reported SI DPP9/8.
Answer using only a numeral; do not append any unit.

- compound: "O=C1CCC(N2C(=O)c3cccc(NCCOCCOC(=O)NC45CC6CC(CC(NCC(=O)N7Cc8ccc(F)cc8C7)(C6)C4)C5)c3C2=O)C(=O)N1 (stereo not drawn)"
  SI DPP9/8: 6
- compound: "CC(C)(C)NC(=O)NC12CC3CC(CC(NCC(=O)N4Cc5ccc(F)cc5C4)(C3)C1)C2"
  SI DPP9/8: 85
- compound: "O=C(CNC12CC3CC(C1)CC(NCc1ccc(-c4ccccc4)cc1)(C3)C2)N1Cc2ccccc2C1"
  SI DPP9/8: 16.5
- compound: "CC(C)(C)OC(=O)NC12CC3CC(CC(NCC(=O)N4Cc5ccccc5C4)(C3)C1)C2"
  SI DPP9/8: 31.7
- compound: "COC(=O)[C@H](Cc1c[nH]c2ccccc12)NC(=O)OC12CC3CC(CC(NCC(=O)N4Cc5ccc(F)cc5C4)(C3)C1)C2"
  SI DPP9/8: 15.7

Answer with reported SI DPP9/8 of `O=C(NCc1ccncc1)OC12CC3CC(CC(NCC(=O)N4Cc5ccccc5C4)(C3)C1)C2`
12.2

For the compound `O=C(NCCCCO)OC12CC3CC(CC(NCC(=O)N4Cc5ccccc5C4)(C3)C1)C2` , give its reported SI DPP9/8.
10.7

Report SI DPP9/8 for `CC(C)(C)OC(=O)NC12CC3CC(CC(NCC(=O)N4Cc5ccc(F)cc5C4)(C3)C1)C2`
57.6

====

# assayed_system: DPP9 (Homo sapiens (Human), UniProt Q86TI2)
# assay_overview: DPP9 enzyme inhibition, IC50 measurement (Ala-Pro-pNA release)
# Assay type: biochemical
# measurement_conditions: Table 1; mean ± SD (n = 3); read-out: IC50 DPP9
Measured IC50 values are reported for all entries that follow.
Return type: number; implicit unit nM.

See these solved cases before continuing.
- molecule_smiles: "N#C[C@@H]1C[C@H](N=[N+]=[N-])CN1C(=O)CNC12CC3CC(C1)CC(OCc1ccc(F)cc1F)(C3)C2"
  assayed_system: "DPP9 (Homo sapiens (Human), UniProt Q86TI2)"
  quantitative_readout: 6
- molecule_smiles: "N#C[C@@H]1C[C@H](N=[N+]=[N-])CN1C(=O)CNC12CC3CC(C1)CC(OCc1ccccc1)(C3)C2"
  assayed_system: "DPP9 (Homo sapiens (Human), UniProt Q86TI2)"
  quantitative_readout: 10
- molecule_smiles: "N#C[C@@H]1C[C@H](N=[N+]=[N-])CN1C(=O)CNC12CC3CC(CC(O)(C3)C1)C2"
  assayed_system: "DPP9 (Homo sapiens (Human), UniProt Q86TI2)"
  quantitative_readout: 16
- molecule_smiles: "N#C[C@@H]1[C@@H]2C[C@@H]2CN1C(=O)CNC12CC3CC(C1)CC(OCc1ccccc1)(C3)C2"
  assayed_system: "DPP9 (Homo sapiens (Human), UniProt Q86TI2)"
  quantitative_readout: 670
- molecule_smiles: "N#C[C@@H]1CCCN1C(=O)CNC12CC3CC(C1)CC(OCc1ccc(F)cc1F)(C3)C2"
  assayed_system: "DPP9 (Homo sapiens (Human), UniProt Q86TI2)"
  quantitative_readout: 52

Please look at the following molecule next.
Read the entry `C=C1C[C@@H](C#N)N(C(=O)CNC23CC4CC(C2)CC(OCc2ccc(F)cc2F)(C4)C3)C1` and write its reported IC50.
130

====

# assayed_system: DPP9 (Homo sapiens (Human))
# assay_overview: DPP9 enzyme inhibition, IC50 measurement (Ala-Pro-pNA release)
# Assay type: biochemical
# measurement_conditions: read-out: IC50 DPP9
Structures can show the parent of a compound that is named as a salt.
assay_endpoint: IC50
Be sure to follow the number with its unit.

In one line, give reported IC50 of the entry COC(=O)c1ccc(-c2ccc(C(=O)NC34CC5CC(CC(NCC(=O)N6Cc7ccc(F)cc7C6)(C5)C3)C4)cc2)cc1 [Compound 104, hydrochloride] .
1 nM

====

# assayed_system: DPP8 (Homo sapiens (Human), UniProt Q6V1X1)
# Sequence (Q6V1X1 whole entry): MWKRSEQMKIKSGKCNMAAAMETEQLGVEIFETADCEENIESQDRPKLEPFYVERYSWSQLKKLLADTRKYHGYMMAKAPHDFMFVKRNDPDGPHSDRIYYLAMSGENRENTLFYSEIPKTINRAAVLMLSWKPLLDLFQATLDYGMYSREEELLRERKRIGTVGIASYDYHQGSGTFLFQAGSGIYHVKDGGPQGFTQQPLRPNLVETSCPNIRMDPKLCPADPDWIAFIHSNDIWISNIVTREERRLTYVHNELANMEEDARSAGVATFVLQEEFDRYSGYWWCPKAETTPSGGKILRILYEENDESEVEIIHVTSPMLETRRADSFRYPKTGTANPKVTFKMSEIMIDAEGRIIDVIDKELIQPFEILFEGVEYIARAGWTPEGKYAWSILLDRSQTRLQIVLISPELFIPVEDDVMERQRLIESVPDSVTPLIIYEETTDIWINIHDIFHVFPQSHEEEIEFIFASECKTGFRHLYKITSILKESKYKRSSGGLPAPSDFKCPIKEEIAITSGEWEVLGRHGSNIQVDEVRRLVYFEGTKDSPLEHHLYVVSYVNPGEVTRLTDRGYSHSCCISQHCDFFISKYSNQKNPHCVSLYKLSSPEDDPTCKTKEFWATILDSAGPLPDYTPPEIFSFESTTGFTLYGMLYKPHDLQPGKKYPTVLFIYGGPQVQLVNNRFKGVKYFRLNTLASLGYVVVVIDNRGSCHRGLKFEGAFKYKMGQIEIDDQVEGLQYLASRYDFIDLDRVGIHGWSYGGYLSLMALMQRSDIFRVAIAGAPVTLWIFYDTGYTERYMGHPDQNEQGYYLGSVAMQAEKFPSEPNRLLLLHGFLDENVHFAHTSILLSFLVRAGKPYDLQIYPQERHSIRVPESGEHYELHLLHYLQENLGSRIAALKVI
# assay_overview: DPP8 enzyme inhibition, IC50 measurement (Ala-Pro-pNA release)
# Type: biochemical
# measurement_conditions: Table 4; standard method; read-out: IC50 DPP8
Field 'label' (enum: class 1 / class 0). Set to class 1 when IC50 is strictly under 0.3 µM; else class 0.

Reference set (3 entries):
- compound: "Cc1ccc2c(c1)CN(C(=O)CNC13CC4CC(C1)CC(NC(=O)OC(C)(C)C)(C4)C3)C2"
  class_label: "class 0"
- compound: "Cl.O=C(NC12CC3CC(CC(NCC(=O)N4Cc5ccc(F)cc5C4)(C3)C1)C2)c1ccc(-c2cccnc2)cc1 [Compound 88, hydrochloride]"
  class_label: "class 1"
- compound: "Cl.O=C(NC12CC3CC(CC(NCC(=O)N4Cc5ccc(F)cc5C4)(C3)C1)C2)c1ccc(-c2ccncc2)cc1 [Compound 91, hydrochloride]"
  class_label: "class 1"

# evaluate next
Please check: IC50 for `Cc1ncsc1-c1ccc(CNC(=O)[C@@H]2C[C@@H](O)CN2C(=O)[C@@H](NC(=O)CCOCCOCCOCCC(=O)NC23CC4CC(CC(NCC(=O)N5Cc6ccc(F)cc6C5)(C4)C2)C3)C(C)(C)C)cc1` , strictly under 0.3 µM or not?
class 1

====

# assayed_system: DPP8 (Homo sapiens (Human), UniProt Q6V1X1)
# assay_overview: DPP8 enzyme inhibition, IC50 measurement (Ala-Pro-pNA release)
# Assay type: biochemical
# measurement_conditions: Table 1; mean ± SD (n = 3); read-out: IC50 DPP8
assay_endpoint: log10 of IC50 (log10 of the value in nM)
Recorded IC50 (log10, nM)

- molecule_smiles: "C=C1C[C@@H](C#N)N(C(=O)CNC23CC4CC(C2)CC(OCc2ccc(F)cc2F)(C4)C3)C1"
  assay_endpoint: "log10 of IC50"
  quantitative_readout: 2.57
- molecule_smiles: "N#C[C@@H]1[C@@H]2C[C@@H]2CN1C(=O)CNC12CC3CC(C1)CC(OCc1ccccc1)(C3)C2"
  assay_endpoint: "log10 of IC50"
  quantitative_readout: 3.77

Fill in log10 of IC50 for `C=C1C[C@@H](C#N)N(C(=O)CNC23CC4CC(C2)CC(OCCCC)(C4)C3)C1` tested with DPP8 (Homo sapiens (Human), UniProt Q6V1X1).
2.72

Find log10 of IC50 for `CCCCOC12CC3CC(CC(NCC(=O)N4CCC[C@H]4C#N)(C3)C1)C2` on DPP8 (Homo sapiens (Human), UniProt Q6V1X1) and write it down.
3.10

Give log10 of IC50 only, for `N#C[C@@H]1C[C@H](N=[N+]=[N-])CN1C(=O)CNC12CC3CC(C1)CC(OCc1ccccc1)(C3)C2` , using DPP8 (Homo sapiens (Human), UniProt Q6V1X1) data.
1.78

Send back DPP8 (Homo sapiens (Human), UniProt Q6V1X1) log10 of IC50 of `CCCCOC12CC3CC(CC(NCC(=O)N4C[C@@H](N=[N+]=[N-])C[C@H]4C#N)(C3)C1)C2` only.
2.43
